Just for reference, patent EP3807270B1 is where these values come from.

Below is a list of entries, each paired with its recorded pIC50 value.
# System Under Test: human TLR8 (Homo sapiens, UniProt Q9NR97)
# Sequence (Q9NR97 27-1041): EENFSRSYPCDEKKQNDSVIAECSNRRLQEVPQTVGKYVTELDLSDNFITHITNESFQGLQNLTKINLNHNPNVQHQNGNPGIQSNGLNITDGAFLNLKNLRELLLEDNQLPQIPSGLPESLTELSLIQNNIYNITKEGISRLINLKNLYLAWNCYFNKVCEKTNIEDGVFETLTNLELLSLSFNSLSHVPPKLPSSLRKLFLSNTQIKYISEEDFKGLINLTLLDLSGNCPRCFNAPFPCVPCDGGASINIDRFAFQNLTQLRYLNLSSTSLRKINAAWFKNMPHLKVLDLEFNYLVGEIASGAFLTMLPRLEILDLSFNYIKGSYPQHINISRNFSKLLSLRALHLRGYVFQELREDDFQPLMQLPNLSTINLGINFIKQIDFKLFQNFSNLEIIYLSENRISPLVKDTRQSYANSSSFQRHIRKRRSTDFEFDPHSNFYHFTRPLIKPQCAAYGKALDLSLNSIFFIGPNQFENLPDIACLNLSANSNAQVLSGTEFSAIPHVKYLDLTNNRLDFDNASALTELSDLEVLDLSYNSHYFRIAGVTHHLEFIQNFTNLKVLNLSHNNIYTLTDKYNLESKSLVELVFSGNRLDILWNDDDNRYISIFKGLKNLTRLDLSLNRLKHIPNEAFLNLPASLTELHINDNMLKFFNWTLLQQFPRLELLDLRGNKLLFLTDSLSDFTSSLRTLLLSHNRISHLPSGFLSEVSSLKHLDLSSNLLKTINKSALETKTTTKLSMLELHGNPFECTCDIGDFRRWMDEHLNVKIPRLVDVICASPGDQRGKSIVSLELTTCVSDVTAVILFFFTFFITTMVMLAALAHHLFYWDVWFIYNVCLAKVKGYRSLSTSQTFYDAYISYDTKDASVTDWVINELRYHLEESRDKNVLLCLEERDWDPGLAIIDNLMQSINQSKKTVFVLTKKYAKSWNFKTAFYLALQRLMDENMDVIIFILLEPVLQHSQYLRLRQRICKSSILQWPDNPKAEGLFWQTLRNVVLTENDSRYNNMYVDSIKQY
# Assay Remarks: HEK293-Blue-hTLR-8 cells assay (SEAP reporter, R848 stimulation)
# Measurement Parameters: HEK293-Blue-hTLR8 cells, R848, 20 hrs; read-out: HEK/hTLR8 IC50
Friendly reminder that pIC50 comes from taking -log10 of the concentration in mol/L.

>>> df
                                   compound  reported
0  C[C@@H]1CN(c2ccc(C#N)c3ncccc23)C[C@H](CN2CC3(C2)CN(c2ccc4c(n2)CNCC4)CCO3)O1      8.00
1  [2H]c1ccc2c(N3C[C@H](CN4CCN(c5ccc6c(n5)CN[C@@H]6C)CC4)O[C@H](C)C3)ccc(C#N)c2n1 (single isomer, unassigned)      8.30
2  C[C@@H]1CN(c2ccc(C#N)c3ncccc23)C[C@H](CN2CC3(C2)CN(c2cc4c(cn2)CCNC4)CCO3)O1      8.10
3  C[C@@H]1CN(c2ccc(C#N)c3ncccc23)C[C@H](CN2CCN(c3ccc4c(n3)[C@@H](C)NC4)CC2)O1 (single isomer, unassigned)      8.05

Continue with the next compound.
compound C[C@@H]1CN(c2ccc(C#N)c3ncccc23)C[C@H](CN2CCN(c3ccc4c(c3)CNC4)CC2CO)O1 (some centres unmarked) , pIC50 observed: 7.96

----------
Below is a list of entries, each paired with its recorded hERG IC20 / TLR7 IC50 value.
# System Under Test: hERG channel (Homo sapiens, UniProt Q12809)
# Construct: expressed in transfected cells; host or cells: CHO (Chinese hamster ovary)
# Sequence (Q12809 whole entry): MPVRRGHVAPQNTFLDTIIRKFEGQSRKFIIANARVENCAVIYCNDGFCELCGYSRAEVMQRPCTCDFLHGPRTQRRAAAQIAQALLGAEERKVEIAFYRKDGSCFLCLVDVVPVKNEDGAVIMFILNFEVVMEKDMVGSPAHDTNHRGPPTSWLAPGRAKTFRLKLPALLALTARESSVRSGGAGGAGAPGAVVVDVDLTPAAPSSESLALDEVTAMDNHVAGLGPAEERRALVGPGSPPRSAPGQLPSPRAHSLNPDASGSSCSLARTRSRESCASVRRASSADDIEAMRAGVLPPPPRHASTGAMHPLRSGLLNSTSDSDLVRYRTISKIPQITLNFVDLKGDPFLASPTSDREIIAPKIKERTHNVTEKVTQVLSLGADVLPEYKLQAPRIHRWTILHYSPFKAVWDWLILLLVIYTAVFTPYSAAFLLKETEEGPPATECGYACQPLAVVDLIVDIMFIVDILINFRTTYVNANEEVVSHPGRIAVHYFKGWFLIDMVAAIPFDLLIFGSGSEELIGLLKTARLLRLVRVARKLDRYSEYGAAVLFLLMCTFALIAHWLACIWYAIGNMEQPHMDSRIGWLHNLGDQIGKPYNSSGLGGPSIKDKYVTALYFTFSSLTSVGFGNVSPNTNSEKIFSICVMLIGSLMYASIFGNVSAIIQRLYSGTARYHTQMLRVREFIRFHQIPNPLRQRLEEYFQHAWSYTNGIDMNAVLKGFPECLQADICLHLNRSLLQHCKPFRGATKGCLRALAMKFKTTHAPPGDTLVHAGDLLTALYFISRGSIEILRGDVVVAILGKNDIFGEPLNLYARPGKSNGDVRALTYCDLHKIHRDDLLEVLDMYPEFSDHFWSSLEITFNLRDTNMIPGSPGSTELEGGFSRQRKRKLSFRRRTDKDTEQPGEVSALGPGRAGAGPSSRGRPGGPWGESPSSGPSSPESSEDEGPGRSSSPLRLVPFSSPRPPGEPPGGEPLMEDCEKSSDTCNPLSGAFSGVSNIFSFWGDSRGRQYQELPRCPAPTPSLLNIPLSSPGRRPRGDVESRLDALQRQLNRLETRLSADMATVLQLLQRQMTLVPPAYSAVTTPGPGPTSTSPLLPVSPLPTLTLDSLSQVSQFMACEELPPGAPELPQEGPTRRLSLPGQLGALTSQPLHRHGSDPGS
# Assay Remarks: hERG channel inhibition assay (patch-clamp, CHO hERG cells)
# Format: cell-based
# Measurement Parameters: safety ratio; TLR7 IC50 of ER compounds from Table 1

# count of solved cases: 3
>>> print(df.to_string())
                                   compound  reported
0  C[C@@H]1Cc2cnc(N3CCN(C[C@H]4CN(c5ccc(C#N)c6ncccc56)C[C@@H](C)O4)CC3)cc2CN1 (single isomer, unassigned) [Example 77]    >885.0
1  C[C@@H]1CN(c2ccc(C#N)c3ncccc23)C[C@H](CN2CCN(c3cc4c(cn3)CCNC4)CC2)O1 [Example 20]   >1298.7
2  C[C@@H]1CN(c2ccc(C#N)c3ncccc23)C[C@H](CN2CCN(c3ccc4c(c3)CCNC4)CC2)O1 [Example 5]    >320.5

Continue with the next compound.
hERG IC20 / TLR7 IC50 of C[C@@H]1CN(c2ccc(C#N)c3ncccc23)C[C@H](CN2CCN(c3ccc4c(c3)CN(CCO)C4)CC2)O1 [Example 16] , assay on hERG channel (Homo sapiens, UniProt Q12809), is >490.2

----------
# System Under Test: hTLR7 (Homo sapiens, UniProt Q9NYK1)
# Sequence (Q9NYK1 27-1049): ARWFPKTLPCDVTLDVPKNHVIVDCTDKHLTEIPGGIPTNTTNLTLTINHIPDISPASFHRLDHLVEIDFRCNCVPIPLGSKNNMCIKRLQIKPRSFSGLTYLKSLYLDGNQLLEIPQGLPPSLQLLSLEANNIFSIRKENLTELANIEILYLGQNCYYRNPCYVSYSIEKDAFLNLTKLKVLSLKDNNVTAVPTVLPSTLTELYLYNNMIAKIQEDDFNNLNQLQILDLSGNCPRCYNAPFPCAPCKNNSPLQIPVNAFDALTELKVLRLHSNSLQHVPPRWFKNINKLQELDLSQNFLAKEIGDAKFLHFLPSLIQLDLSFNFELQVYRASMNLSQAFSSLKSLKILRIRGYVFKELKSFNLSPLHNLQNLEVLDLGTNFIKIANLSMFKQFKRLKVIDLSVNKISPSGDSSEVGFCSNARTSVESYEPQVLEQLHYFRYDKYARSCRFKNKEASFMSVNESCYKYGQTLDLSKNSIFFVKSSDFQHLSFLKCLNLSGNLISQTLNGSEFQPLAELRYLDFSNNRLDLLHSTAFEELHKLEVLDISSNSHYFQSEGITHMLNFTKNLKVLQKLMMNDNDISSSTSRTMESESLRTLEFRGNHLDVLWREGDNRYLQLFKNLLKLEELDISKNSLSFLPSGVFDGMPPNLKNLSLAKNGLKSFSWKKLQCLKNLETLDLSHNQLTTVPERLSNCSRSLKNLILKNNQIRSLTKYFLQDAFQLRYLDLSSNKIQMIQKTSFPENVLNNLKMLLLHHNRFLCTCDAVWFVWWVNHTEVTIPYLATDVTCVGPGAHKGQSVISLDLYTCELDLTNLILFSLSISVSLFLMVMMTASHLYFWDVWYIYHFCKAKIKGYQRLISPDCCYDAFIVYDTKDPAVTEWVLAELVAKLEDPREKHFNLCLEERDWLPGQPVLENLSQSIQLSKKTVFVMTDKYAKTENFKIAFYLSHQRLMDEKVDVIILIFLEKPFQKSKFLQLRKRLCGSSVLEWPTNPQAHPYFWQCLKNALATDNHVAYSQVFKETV
# Assay Remarks: HEK293-Blue-hTLR-7 cells assay (SEAP reporter, R848 stimulation)
# Type: cell-based
# Parameters: host or cells: HEK293 (HEK-Blue)
# Measurement Parameters: HEK293-Blue-hTLR7 cells, R848, 20 hrs; read-out: HEK/hTLR7 IC50
Parameter Measured: pIC50
Friendly reminder that pIC50 comes from taking -log10 of the concentration in mol/L.

>>> print(df.to_string())
                                   molecule  reported
0  C[C@@H]1CN(c2ccc(C#N)c3ncccc23)C[C@H](CN2CCN(c3ccc4c(c3)CN(CCO)C4)CC2)O1      7.70

molecule C[C@@H]1CN(c2ccc(C#N)c3ncccc23)C[C@H](CN2CCN(c3ccc4c(c3)CCNC4CO)CC2)O1 (some centres unmarked) , pIC50 observed: 7.49

molecule C[C@@H]1CN(c2ccc(C#N)c3ncccc23)C[C@H](CN2CCN(c3ccc4c(c3)CNC4)[C@@H](CO)C2)O1 , pIC50 observed: 7.19

molecule C[C@@H]1CN(c2ccc(C#N)c3nccnc23)C[C@H](CN2CCN(c3cc4c(cn3)[C@@H](C)NCC4)CC2)O1 (single isomer, unassigned) , pIC50 observed: 8.22

molecule C[C@@H]1CN(c2ccc(C#N)c3ncccc23)C[C@H](CN2CCN(c3ncc4c(n3)CNCC4)CC2)O1 , pIC50 observed: 7.96

molecule C[C@@H]1CN(c2ccc(C#N)c3ncccc23)C[C@H](CN2CCC(Nc3ncc4c(n3)CCNC4)C2)O1 (some centres unmarked) , pIC50 observed: 7.70

molecule C[C@@H]1CN(c2ccc(C#N)c3ncccc23)C[C@H](CN2CCN(c3ncc4c(n3)CNC4)CC2)O1 , pIC50 observed: 7.96

molecule C[C@@H]1CN(c2ccc(C#N)c3ncccc23)C[C@H](CN2CC3(C2)CN(c2cc4c(cn2)CCNC4)CCO3)O1 , pIC50 observed: 8.30

molecule C[C@@H]1CN(c2ccc(C#N)c3nccnc23)C[C@H](CN2CCN(c3ccc4c(n3)CN[C@@H]4C)CC2)O1 (single isomer, unassigned) , pIC50 observed: 8.10

molecule C[C@@H]1CN(c2ccc(C#N)c3ncccc23)C[C@H](CN2CCN(c3ccc4c(n3)CCNC4)C[C@@H](O)C2)O1 (single isomer, unassigned) [Example 35B] , pIC50 observed: 7.21

molecule C[C@@H]1CN(c2ccc(C#N)c3ncccc23)C[C@H](CN2CCN(c3cc4c(cn3)CCN[C@@H]4C)CC2)O1 (single isomer, unassigned) , pIC50 observed: 8.15
